Give remaining activity at 100 µM for every item shown.
Target: PAD4 (Homo sapiens (Human))
Test: Inhibition of PAD activity (Example 53), PAD4
Conditions: read-out: Remaining activity of PAD4

Inquiry: Request the reported remaining activity at 100 µM associated with COC(=O)[C@H](CN1CCNCC1)NC(=O)c1ccco1 [KP-225]
Reply text: 78.7%

Inquiry: Now the molecule O=C(N[C@@H](CC(=O)N1CCNCC1)C(=O)Nc1ccccc1)c1ccco1 [KP-230]
Reply text: 96.9%

Inquiry: Now the molecule O=C(N[C@@H](CN1CCNCC1)C(=O)NCc1ccccc1)c1ccco1 [KP-227]
Reply text: 100%

Inquiry: Now the molecule O=C(N[C@@H](CCO)C(=O)Nc1ccccc1)OCc1ccccc1 [KP-231]
Reply text: 100%

Inquiry: Now the molecule O=C(N[C@@H](CCN1CCNCC1)C(=O)NCc1ccccc1)c1ccco1 [KP-228]
Reply text: 96.4%

Inquiry: Now the molecule O=C(Nc1ccccc1)[C@H](CC(=O)N1CCNCC1)NC(=O)N1CCOCC1 [KP-229]
Reply text: 100%

====

Biological target: PAD1 (Homo sapiens (Human))
Sequence (Q9ULC6 whole entry): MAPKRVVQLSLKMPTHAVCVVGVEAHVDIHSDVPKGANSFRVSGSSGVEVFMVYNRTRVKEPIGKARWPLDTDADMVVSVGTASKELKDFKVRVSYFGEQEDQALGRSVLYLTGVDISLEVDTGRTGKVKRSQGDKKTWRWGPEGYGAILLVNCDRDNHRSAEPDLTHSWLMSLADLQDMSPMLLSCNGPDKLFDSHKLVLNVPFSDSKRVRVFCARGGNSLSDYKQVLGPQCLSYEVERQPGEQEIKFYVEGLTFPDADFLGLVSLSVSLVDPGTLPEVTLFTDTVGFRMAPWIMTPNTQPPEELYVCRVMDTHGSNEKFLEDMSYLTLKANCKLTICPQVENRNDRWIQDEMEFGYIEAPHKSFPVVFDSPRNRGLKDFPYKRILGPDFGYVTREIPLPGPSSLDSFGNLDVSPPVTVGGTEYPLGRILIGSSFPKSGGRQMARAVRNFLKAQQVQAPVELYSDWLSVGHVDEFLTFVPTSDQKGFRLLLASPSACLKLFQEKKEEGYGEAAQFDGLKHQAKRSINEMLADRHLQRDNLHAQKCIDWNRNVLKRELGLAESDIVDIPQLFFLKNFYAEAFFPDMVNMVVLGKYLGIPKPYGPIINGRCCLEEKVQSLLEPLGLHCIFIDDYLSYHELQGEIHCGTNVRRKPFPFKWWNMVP
Assay: Enzyme inhibition kinetics (Example 54), hPAD1
Assay type: biochemical
Conditions: Table 6
Measure: Ki

Inquiry: Request the reported Ki associated with O=C(N[C@@H](CCn1ccnn1)C(=O)NCc1ccccc1)c1ccc(F)cc1
Reply text: > 10000 µM

Inquiry: Now the compound CC(C)NC(=O)[C@H](CCn1ccnc1)NC(=O)c1ccco1
Reply text: 964 µM

Inquiry: Now the compound O=C(N[C@@H](CCn1ccnc1)C(=O)NCc1ccccc1)c1ccco1
Reply text: > 10000 µM

Inquiry: Now the compound CC(C)NC(=O)[C@H](CCn1cnc(CC#N)c1)NC(=O)c1ccco1
Reply text: 353 µM

Inquiry: Now the compound CC(C)NC(=O)[C@H](CCN1CCN(C)CC1)NC(=O)N1CCOCC1
Reply text: > 10000 µM

====

Give remaining activity at 1000 µM for every item shown.
Target: PAD4 (Homo sapiens (Human), UniProt Q9UM07)
Sequence (Q9UM07 whole entry): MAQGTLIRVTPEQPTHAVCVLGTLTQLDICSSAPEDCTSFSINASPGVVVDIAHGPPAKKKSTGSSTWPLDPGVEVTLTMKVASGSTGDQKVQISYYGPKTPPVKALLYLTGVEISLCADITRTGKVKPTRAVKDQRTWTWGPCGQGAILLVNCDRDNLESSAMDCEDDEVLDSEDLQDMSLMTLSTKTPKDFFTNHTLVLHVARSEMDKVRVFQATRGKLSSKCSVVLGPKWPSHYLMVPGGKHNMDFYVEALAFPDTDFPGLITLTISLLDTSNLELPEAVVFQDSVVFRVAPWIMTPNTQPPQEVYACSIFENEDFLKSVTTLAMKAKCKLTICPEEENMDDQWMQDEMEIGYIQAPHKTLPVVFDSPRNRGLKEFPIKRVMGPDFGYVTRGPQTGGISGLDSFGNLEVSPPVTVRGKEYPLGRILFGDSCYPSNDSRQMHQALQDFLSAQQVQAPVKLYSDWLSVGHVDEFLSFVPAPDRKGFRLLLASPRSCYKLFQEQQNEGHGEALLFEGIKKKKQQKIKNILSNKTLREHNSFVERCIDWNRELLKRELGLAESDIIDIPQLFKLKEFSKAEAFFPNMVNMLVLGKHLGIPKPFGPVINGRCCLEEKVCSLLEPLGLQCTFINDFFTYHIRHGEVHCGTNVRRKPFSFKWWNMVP
Test: Inhibition of PAD activity (Example 53), PAD4
Details: read-out: Remaining activity of PAD4
Field: numeric (%). Do not append units.

Inquiry: Request the reported remaining activity at 1000 µM associated with O=C(N[C@@H](CN1CCNCC1)C(=O)NCc1ccccc1)c1ccco1
Reply text: 82.2

Inquiry: Now the compound O=C(Nc1ccccc1)[C@H](CC(=O)N1CCNCC1)NC(=O)N1CCOCC1
Reply text: 100

Inquiry: Now the compound O=C(N[C@@H](CCO)C(=O)Nc1ccccc1)OCc1ccccc1
Reply text: 82.3

Inquiry: Now the compound COC(=O)[C@H](CN1CCNCC1)NC(=O)c1ccco1
Reply text: 62.2

Inquiry: Now the compound O=C(N[C@@H](CCN1CCNCC1)C(=O)NCc1ccccc1)c1ccco1
Reply text: 82.1

Inquiry: Now the compound O=C(N[C@@H](CC(=O)N1CCNCC1)C(=O)Nc1ccccc1)c1ccco1
Reply text: 82.4

====

Give remaining activity at 100 µM for every item shown.
Biological target: PAD2 (Mus musculus (Mouse))
Experiment: Inhibition of PAD activity (Example 53), PAD2
Settings: read-out: Remaining activity of PAD2
Field: numeric (%). Do not append units.

Inquiry: Write down the reported remaining activity at 100 µM of COC(=O)[C@H](CN1CCNCC1)NC(=O)c1ccco1 [KP-225] , test system: PAD2 (Mus musculus (Mouse)).
Reply text: 86.6

Inquiry: Now the compound O=C(N[C@@H](CCN1CCNCC1)C(=O)NCc1ccccc1)c1ccco1 [KP-228]
Reply text: 58.6

Inquiry: Now the compound O=C(N[C@@H](CC(=O)N1CCNCC1)C(=O)Nc1ccccc1)c1ccco1 [KP-230]
Reply text: 55.1

Inquiry: Now the compound O=C(N[C@@H](CN1CCNCC1)C(=O)NCc1ccccc1)c1ccco1 [KP-227]
Reply text: 63.7

Inquiry: Now the compound O=C(N[C@@H](CCO)C(=O)Nc1ccccc1)OCc1ccccc1 [KP-231]
Reply text: 44.4

Inquiry: Now the compound O=C(Nc1ccccc1)[C@H](CC(=O)N1CCNCC1)NC(=O)N1CCOCC1 [KP-229]
Reply text: 54

====

Biological target: PAD2 (Mus musculus (Mouse))
Assay: Inhibition of PAD activity (Example 53), PAD2
Settings: read-out: PAD2 inhibition constant Ki ± Std Error; Table 1
Give pKi for every item shown.
Quick note: pKi values are minus log10 of concentrations in mol/L.

Inquiry: Request the reported pKi associated with COC(=O)[C@H](CN1CCNCC1)NC(=O)C1CCCCC1
Reply text: 4.67

Inquiry: Now the molecule COC(=O)[C@H](CCN1CCNCC1)NC(=O)c1ccco1
Reply text: 4.71

====

The following are reported pKi results, target or system mPAD2 (Mus musculus (Mouse), UniProt Q08642).
Quick note: pKi values are minus log10 of concentrations in mol/L.

Inquiry: Request the reported pKi associated with CC(C)NC(=O)[C@H](CCn1ccnc1)NC(=O)c1ccco1
Reply text: 3.26

Inquiry: Now the molecule CC(C)NC(=O)[C@H](CCN1CCN(C)CC1)NC(=O)c1ccco1
Reply text: 2.74

====

Biological target: PADs
Assay: Enzymatic assays with hPAD1, mPAD2 and hPAD4, stated for PADs overall
Conditions: summary of Table 6; read-out: Ki, activity towards PADs
Measure: Ki

Inquiry: Request the reported Ki associated with O=C(N[C@@H](CCn1ccnc1)C(=O)NCc1ccccc1)c1ccco1
Reply text: 200 to 500 µM

Inquiry: Now the compound CC(C)NC(=O)[C@H](CCN1CCN(C)CC1)NC(=O)N1CCOCC1
Reply text: 200 to 500 µM

====

Give pKi for every item shown.
Biological target: PAD4 (Homo sapiens (Human), UniProt Q9UM07)
Test: Inhibition of PAD activity (Example 53), PAD4
Conditions: read-out: PAD4 Ki ± std error; Table 5
Quick note: pKi values are minus log10 of concentrations in mol/L.

Inquiry: Write down the reported pKi of O=C(N[C@@H](Cn1ccnc1)C(=O)OCc1ccccc1)c1ccco1 , test system: PAD4 (Homo sapiens (Human), UniProt Q9UM07).
Reply text: 2.97

Inquiry: Now the compound CC(C)NC(=O)[C@H](CCn1cnc(CC#N)c1)NC(=O)c1ccco1
Reply text: 3.23

Inquiry: Now the compound CC(C)NC(=O)[C@H](CCN1CCN(C)CC1)NC(=O)c1ccco1
Reply text: 3.31

Inquiry: Now the compound CC(C)(C)OC(=O)N[C@H](CCN=[N+]=[N-])C(=O)NCc1ccccc1
Reply text: 2.84

Inquiry: Now the compound COC(=O)[C@H](Cn1ccnc1)NC(=O)c1ccco1
Reply text: 2.91

====

Target: PAD4 (Homo sapiens (Human))
Assay: Enzyme inhibition kinetics (Example 54), hPAD4
Assay type: biochemical
Details: Table 6
Measure: Ki (µM)
Field: numeric (µM). Do not append units.

Inquiry: Request the reported Ki associated with CC(C)NC(=O)[C@H](CCN1CCN(C)CC1)NC(=O)c1ccco1 [KP-289]
Reply text: 488

Inquiry: Now the compound CC(C)NC(=O)[C@H](CCn1cnc(CC#N)c1)NC(=O)c1ccco1 [KP-288]
Reply text: 591

====

Biological target: PAD2 (Mus musculus (Mouse), UniProt Q08642)
Sequence (Q08642 whole entry): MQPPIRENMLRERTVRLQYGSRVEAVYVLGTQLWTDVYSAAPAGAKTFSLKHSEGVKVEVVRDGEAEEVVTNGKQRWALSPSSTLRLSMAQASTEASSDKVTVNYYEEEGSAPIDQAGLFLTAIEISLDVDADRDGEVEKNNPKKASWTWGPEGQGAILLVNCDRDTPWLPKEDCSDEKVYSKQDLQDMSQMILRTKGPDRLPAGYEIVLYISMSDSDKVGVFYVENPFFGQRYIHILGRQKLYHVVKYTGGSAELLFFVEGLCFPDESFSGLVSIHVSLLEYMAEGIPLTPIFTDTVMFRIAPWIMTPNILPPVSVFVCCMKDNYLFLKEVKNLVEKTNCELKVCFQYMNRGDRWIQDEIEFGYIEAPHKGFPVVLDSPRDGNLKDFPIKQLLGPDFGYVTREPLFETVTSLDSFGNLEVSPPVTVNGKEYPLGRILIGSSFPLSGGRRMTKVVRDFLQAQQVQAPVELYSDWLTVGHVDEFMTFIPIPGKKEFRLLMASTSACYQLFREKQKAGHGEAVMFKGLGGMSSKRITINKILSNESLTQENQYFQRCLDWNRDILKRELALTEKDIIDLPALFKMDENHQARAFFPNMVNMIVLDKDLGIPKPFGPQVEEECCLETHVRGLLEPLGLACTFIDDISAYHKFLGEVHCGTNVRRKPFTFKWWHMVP
Experiment: Inhibition of PAD activity (Example 53), PAD2
Conditions: read-out: Remaining activity of PAD2
Measure: remaining activity at 1000 µM (%)
Field: numeric (%). Do not append units.

Inquiry: Request the reported remaining activity at 1000 µM associated with O=C(N[C@@H](CCN1CCNCC1)C(=O)NCc1ccccc1)c1ccco1
Reply text: 31.8

Inquiry: Now the compound O=C(Nc1ccccc1)[C@H](CC(=O)N1CCNCC1)NC(=O)N1CCOCC1
Reply text: 63.3

Inquiry: Now the compound COC(=O)[C@H](CN1CCNCC1)NC(=O)c1ccco1
Reply text: 70.8

Inquiry: Now the compound O=C(N[C@@H](CCO)C(=O)Nc1ccccc1)OCc1ccccc1
Reply text: 45.5

Inquiry: Now the compound O=C(N[C@@H](CN1CCNCC1)C(=O)NCc1ccccc1)c1ccco1
Reply text: 68.2

Inquiry: Now the compound O=C(N[C@@H](CC(=O)N1CCNCC1)C(=O)Nc1ccccc1)c1ccco1
Reply text: 33.5

====

Give Ki for every item shown.
Target: PAD4 (Homo sapiens (Human), UniProt Q9UM07)
Assay: Enzyme inhibition kinetics (Example 54), hPAD4
Format: biochemical
Conditions: Table 6

Inquiry: Request the reported Ki associated with O=C(N[C@@H](CCn1ccnc1)C(=O)NCc1ccccc1)c1ccco1 [KP-301]
Reply text: > 10 mM

Inquiry: Now the compound CC(C)NC(=O)[C@H](CCN1CCN(C)CC1)NC(=O)N1CCOCC1 [KP-287]
Reply text: > 10 mM

Inquiry: Now the compound CC(C)NC(=O)[C@H](CCN1CCN(C)CC1)NC(=O)C1CCCCC1 [KP-295]
Reply text: > 10 mM
